# measurement-target: T1, ARHGAP21, Q5T5U3
# T1 sequence (Q5T5U3 45-169, limits assumed, looked up): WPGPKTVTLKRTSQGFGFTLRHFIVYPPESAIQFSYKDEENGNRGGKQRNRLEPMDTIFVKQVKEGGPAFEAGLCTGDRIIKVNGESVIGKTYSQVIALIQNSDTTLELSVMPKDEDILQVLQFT
# protocol-description: holdup assay
# Parameters: key: below the threshold = too weak to quantify, mostly under pKd 3.1 to 4
# measurement-context: plain residues with an end cap or a label only (N-terminal biotin on a linker: ado-ado)

# binder, pKd
measured = [
    ("RSPVATATSC [DUSP5, Q16690]", "below the threshold"),
    ("TFSRRPKTRV [CD226, Q15762]", 4.06),
    ("PAALPESTHM [SLC9A3, P48764]", 4.05),
    ("TKEIPNCTSV [SORCS3, Q9UPU3]", 3.86),
    ("QKASRNESTF [POLR1D, P0DPB6]", "below the threshold"),
    ("VCMGDHWFDV [PRKN, O60260]", 4.08),
    ("NTALVESEDL [PALLS, Q8WX93;Q8WX93-1]", "below the threshold"),
    ("PSDSVGKDVF [EGLN1, Q9GZT9]", 3.47),
]
